- Test system: Enterococcus faecalis
- MEASUREMENT_PROTOCOL: Antibacterial activity against Enterococcus faecalis ATCC 29212
- Type: functional
QUANTITY_KIND: MIC

Below, each entry is followed by its recorded MIC result.
CCNC(=O)Nc1nc2cc(-c3cccnc3)cc(-c3nccs3)n2n1; 1 µg/mL
CCNC(=O)Nc1nc2cc(-c3cccnc3)cc(C(=O)NC)n2n1; 4 µg/mL
CCNC(=O)Nc1nc2cc(-c3cccnc3)cc(-c3ccccc3)n2n1; 32 µg/mL

Turning now to a further compound:
Requested read-out: MIC. Entry: CCNC(=O)Nc1nc2cc(-c3cccnc3)cc(-c3ccc(O)cc3)n2n1 > 256 µg/mL
